- target: CXCR7 (Homo sapiens)
- Construct: host or cells: CHO-K1 (PathHunter CHO-K1 CXCR7 b-arrestin cell line, stably transfected)
- Sequence (P25106 whole entry): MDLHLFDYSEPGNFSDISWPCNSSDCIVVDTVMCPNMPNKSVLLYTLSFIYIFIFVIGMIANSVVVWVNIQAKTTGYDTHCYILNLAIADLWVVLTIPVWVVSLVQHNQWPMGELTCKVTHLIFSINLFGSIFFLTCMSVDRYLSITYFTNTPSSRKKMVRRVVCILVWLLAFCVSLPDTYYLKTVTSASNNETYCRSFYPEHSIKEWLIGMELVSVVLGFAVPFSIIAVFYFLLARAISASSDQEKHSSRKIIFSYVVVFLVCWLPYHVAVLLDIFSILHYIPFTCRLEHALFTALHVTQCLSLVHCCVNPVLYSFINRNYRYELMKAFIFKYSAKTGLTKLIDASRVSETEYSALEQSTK
- Sequence (P32121 whole entry partner): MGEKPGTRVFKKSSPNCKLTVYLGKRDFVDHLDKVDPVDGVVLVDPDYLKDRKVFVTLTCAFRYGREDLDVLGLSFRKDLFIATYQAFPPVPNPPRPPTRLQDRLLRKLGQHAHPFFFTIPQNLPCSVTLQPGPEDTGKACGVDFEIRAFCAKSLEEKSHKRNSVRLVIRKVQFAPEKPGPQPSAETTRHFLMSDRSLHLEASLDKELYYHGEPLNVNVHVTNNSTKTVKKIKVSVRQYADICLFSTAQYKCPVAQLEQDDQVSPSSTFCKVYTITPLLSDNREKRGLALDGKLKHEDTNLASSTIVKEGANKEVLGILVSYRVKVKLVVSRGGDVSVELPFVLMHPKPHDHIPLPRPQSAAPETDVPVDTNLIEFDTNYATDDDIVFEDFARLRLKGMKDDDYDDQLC
- test.method.notes: PathHunter CHO-K1 CXCR7 b-arrestin recruitment assay (CXCR7 agonistic activity)
- Format: cell-based
- recorded.conditions: PathHunter CHO-K1 CXCR7 b-arrestin cell line
pEC50: −log10 of the molar value.
measured.property: pEC50

{"molecule": "CCN1CCc2cccc(NCC(=O)N(CCN(C)C)Cc3cccc(C)n3)c2C1 [compound 526]", "measured.property": "pEC50", "quantitative.result": 7.36}
{"molecule": "CN(C)CCN(Cc1ccccc1)C(=O)COc1cccc2c1CN(C)CC2 [Example 201]", "measured.property": "pEC50", "quantitative.result": 7.57}
{"molecule": "CN(C)CCN(Cc1ccccc1OC(F)(F)F)C(=O)CNc1cccc2c1CCN(CC1CC1)C2 [Example 227]", "measured.property": "pEC50", "quantitative.result": 8.22}
{"molecule": "CCN1CCc2c(CCC(=O)N(CCN(C)C)Cc3ccccc3C(F)(F)F)cccc2C1 [compound 157]", "measured.property": "pEC50", "quantitative.result": 8.05}
{"molecule": "CN(C)CCN(Cc1ccccc1)C(=O)CNc1cccc2c1CN(C(=O)c1ccccc1)CC2 [compound 195]", "measured.property": "pEC50", "quantitative.result": 7.92}
{"molecule": "CN(C)CCN(Cc1ncccc1C(F)(F)F)C(=O)CNc1cccc2c1CCN(C1COC1)C2 [Example 367]", "measured.property": "pEC50", "quantitative.result": 6.94}

1. C=CCOC(=O)N1CCc2c(cccc2NCC(=O)N(CCNC)Cc2ncccc2C(F)(F)F)C1 [compound 422]
2. CCN1CCc2cccc(NCC(=O)N(CCN(C)C)Cc3ccc(Cl)cc3)c2C1 [compound 502]
Lab note: check whether 1 or 2 shows the higher recorded pEC50. Your answer should be the label of the entry you select.
1
(1: 7.48, 2: 6.95)

Source listed as patent US9920010B2.
